Conditions: buffer; pH 7.4; 200.0 µM
TEST READOUT: solubility kinetic (µg/mL)
Numbers only, in µg/mL.

Example entries and their recorded answers appear below.
INSERT INTO results (molecule, value_measured) VALUES
  ('Cc1ccc(NC(=O)Cc2ccc(-c3ccccc3)cc2)nc1', 5.7),
  ('Cc1cc2cc(CNC(=O)C(C)Oc3ccccc3)ccc2n1C (centres undefined)', 11.4),
  ('CC(OC(=O)CC1CCCCC1)C(=O)Nc1ccc(F)cc1 (centres undefined)', 1.2),
  ('COc1ccc2[nH]cc(CCNC(=S)NC3CCCC3)c2c1', 43.6),
  ('O=C(CN1CCOCC1)Nc1ccc([N+](=O)[O-])cc1', 39.3),
  ('O=C(COc1cccnc1[N+](=O)[O-])c1c[nH]c2ccccc12', 4.3);

Batch of 3 molecules: report solubility kinetic for each.
1. COc1ccc(CNC(=O)c2cc(C(=O)C3CC3)c[nH]2)cc1
2. O=C(Nc1ccc(N2CCCC2)cc1)c1ccccc1[N+](=O)[O-]
3. COC(=O)c1cccc(NC(=O)c2cnccn2)c1

2
2.4
9.5
